test system: ANKA strain of P. berghei; test: Single dose STI in vivo screen in infected mice; parameters: species or system Plasmodium berghei; conditions: single 10 mg/kg po in SSV; untreated 6-7 days
Counter-ions that a name gives are not always drawn.
test.readout: Survival (days) 10 mg/kg SSV po
Please reply with the bare figure in days and do not write the unit itself.

Previously resolved entries follow.
[[record]]
molecule = "NOC[C@H]1CC[C@]2(CC1)OO[C@]1(O2)C2CC3CC(C2)CC1C3"
observed_measurement = 6.8

[[record]]
molecule = "O=C(NCCO)[C@H]1CC[C@]2(CC1)OOC1(O2)C2CC3CC(C2)CC1C3 (stereo partly shown)"
observed_measurement = 7.0


// Survival (days) 10 mg/kg SSV po value for C1CC1CNC1CCC2(CC1)OOC1(O2)C2CC3CC(C2)CC1C3 (stereo not shown) [OZ184, hydrochloride] : 7.0

* * *

Examples of molecules with documented % reduction of adult worms growth at day 49 after per os application of 400 mg/kg, TWR (%) follow.
System: Schistosoma mansoni adult worms (49-day-old)
Experiment: Effect on adult schistosomes (49-day-old) in infected mice
Assay type: in vivo
Details: single 400 mg/kg per os, 49-day-old adults; total worm reduction rate
Description: Mice were infected with 100 Schistosoma mansoni cercariae on day 49 post-treatment. Each group was treated per os with OZ compounds at single doses of 200, 400, and 600 mg/kg. Untreated mice served as the control. All groups were killed 4 weeks after treatment and the liver and intestine were removed and separated. The liver and intestine were compressed and alive male and female worms could be seen and counted.
Counter-ions that a name gives are not always drawn.
API: value field is a number in %; no unit string.

Answered examples (6):
[[record]]
molecule = "CON=C1CCC2(CC1)OOC1(O2)C2CC3CC(C2)CC1C3 (centres unmarked) [OZ15]"
result_unit = "%"
observed_measurement = 0

[[record]]
molecule = "c1ccc(C2(c3ccccn3)OOC3(O2)C2CC4CC(C2)CC3C4)nc1 (centres unmarked) [OZ81]"
result_unit = "%"
observed_measurement = 28

[[record]]
molecule = "O=C(CO)N1CCC2(CC1)OOC1(O2)C2CC3CC(C2)CC1C3 (centres unmarked) [OZ83]"
result_unit = "%"
observed_measurement = 7

[[record]]
molecule = "c1ccc(C[C@H]2CC[C@]3(CC2)OOC2(O3)C3CC4CC(C3)CC2C4)cc1 (some centres unmarked) [OZ156]"
result_unit = "%"
observed_measurement = 0

[[record]]
molecule = "NCC(=O)NC[C@H]1CC[C@]2(CC1)OO[C@]1(O2)C2CC3CC(C2)CC1C3 [OZ271]"
result_unit = "%"
observed_measurement = 0

[[record]]
molecule = "CC1(C)COC2(CCC3(CC2)OOC2(O3)C3CCCC2CCC3)OC1 (centres unmarked) [OZ68]"
result_unit = "%"
observed_measurement = 17


Value of % reduction of adult worms growth at day 49 after per os application of 400 mg/kg, TWR (%) reported for the molecule CCN(CC)CC[C@H]1CC[C@]2(CC1)OOC1(O2)C2CC3CC(C2)CC1C3 (some centres unmarked) [OZ126, hydrobromide] is 0

response.value for O=C(c1ccccc1)N1CCC2(CC1)OOC1(O2)C2CC3CC(C2)CC1C3 (centres unmarked) [OZ24] (field: % reduction of adult worms growth at day 49 after per os application of 400 mg/kg, TWR (%)) = 21

The molecule O=C1CCC2(CC1)OOC1(O2)C2CC3CC(C2)CC1C3 (centres unmarked) [OZ05] showed % reduction of adult worms growth at day 49 after per os application of 400 mg/kg, TWR (%) equal to 23

The value of % reduction of adult worms growth at day 49 after per os application of 400 mg/kg, TWR (%) measured for the molecule CC(C)(O)[C@H]1CC[C@]2(CC1)OOC1(O2)C2CC3CC(C2)CC1C3 (some centres unmarked) [OZ108] turned out to be 28

// OC1(c2ccc(F)cc2)CCC2(CC1)OOC1(O2)C2CC3CC(C2)CC1C3 (centres unmarked) [OZ76] : % reduction of adult worms growth at day 49 after per os application of 400 mg/kg, TWR (%) value = 32

Kindly note the recorded % reduction of adult worms growth at day 49 after per os application of 400 mg/kg, TWR (%) for O=C(O)C1CCC2(CC1)OOC1(O2)C2CC3CC(C2)CC1C3 (centres unmarked) [OZ72] , which is 0

* * *

Tested on: ANKA strain of P. berghei
Assay: Single dose STI in vivo screen in infected mice
Set-up: species or system Plasmodium berghei
Conditions: single 10 mg/kg po in SSV; untreated 6-7 days
Experimental: In the single dose STI in vivo screen, Moro SPF or NMRI mice infected with the ANKA strain of P. berghei (groups of three mice) were treated on day one post-infection with trioxolanes dissolved or suspended in 3% ethanol and 7% Tween 80. […] Antimalarial activity was measured by percent reduction in parasitemia on day three post-infection and survival times compared to an untreated control group. […]
Structures can show the parent of a compound that is named as a salt.
Field: label. Allowed values: Met (Survival (days) 10 mg/kg SSV po < 7 days) or Not met (Survival (days) 10 mg/kg SSV po >= 7 days).

These recorded examples may help you get a feel for the data.
[[record]]
molecule = "COCC(=O)N1CCC2(CC1)OOC1(O2)C2CC3CC(C2)CC1C3 (stereo not drawn)"
target_under_test = "ANKA strain of P. berghei"
category_label = "Not met"

[[record]]
molecule = "O=C(NO)[C@H]1CC[C@@]2(CC1)OOC1(O2)C2CC3CC(C2)CC1C3 (stereo partly drawn)"
target_under_test = "ANKA strain of P. berghei"
category_label = "Not met"

[[record]]
molecule = "NC(=O)C[C@H]1CC[C@]2(CC1)OOC1(O2)C2CC3CC(C2)CC1C3 (stereo partly drawn)"
target_under_test = "ANKA strain of P. berghei"
category_label = "Not met"

[[record]]
molecule = "O=C(O)CCC(=O)N[C@H]1CC[C@]2(CC1)OOC1(O2)C2CC3CC(C2)CC1C3 (stereo partly drawn)"
target_under_test = "ANKA strain of P. berghei"
category_label = "Met"

[[record]]
molecule = "N=C(N)N1CCC2(CC1)OOC1(O2)C2CC3CC(C2)CC1C3 (stereo not drawn) [OZ191, hydrochloride]"
target_under_test = "ANKA strain of P. berghei"
category_label = "Met"

[[record]]
molecule = "O=C(NC[C@H]1CC[C@]2(CC1)OO[C@]1(O2)C2CC3CC(C2)CC1C3)N1CCOCC1"
target_under_test = "ANKA strain of P. berghei"
category_label = "Not met"


Now turn to the next molecule.
Inquiry: I wonder whether `NC(=O)[C@@H]1CCCN1C[C@H]1CC[C@]2(CC1)OO[C@]1(O2)C2CC3CC(C2)CC1C3` has Survival (days) 10 mg/kg SSV po below 7 days. Can you tell?
Reply text: Not met

* * *

test system: Schistosoma mansoni adult worms (49-day-old); assay: Effect on adult schistosomes (49-day-old) in infected mice; format: in vivo; settings: single 400 mg/kg per os, 49-day-old adults; total worm reduction rate
Where a name gives a salt, the structure may show the parent alone.
Class class 1: % reduction of adult worms growth at day 49 after per os application of 400 mg/kg, TWR (%) at least 10%. Class class 0: % reduction of adult worms growth at day 49 after per os application of 400 mg/kg, TWR (%) below 10%.

[[record]]
molecule = "O=C(O)C1CCC2(CC1)OOC1(O2)C2CC3CC(C2)CC1C3 (centres unmarked) [OZ71]"
category_label = "class 0"

[[record]]
molecule = "O=S1(=O)CCC2(CC1)OOC1(O2)C2CC3CC(C2)CC1C3 (centres unmarked)"
category_label = "class 1"

[[record]]
molecule = "CC1(C)COC2(CCC3(CC2)OOC2(O3)C3CC4CC(C3)CC2C4)OC1 (centres unmarked)"
category_label = "class 1"


Inquiry: Answer whether % reduction of adult worms growth at day 49 after per os application of 400 mg/kg, TWR (%) of CCOC(=O)CC1CCC2(CC1)OOC1(O2)C2CC3CC(C2)CC1C3 (centres unmarked) is greater than or equal to 10%.
Reply text: class 0

Inquiry: Can OC1CCC2(CC1)OOC1(O2)C2CC3CC(C2)CC1C3 (centres unmarked) be said to have % reduction of adult worms growth at day 49 after per os application of 400 mg/kg, TWR (%) at or above 10%?
Reply text: class 1

Inquiry: Hi, just wondering whether C1=C(c2ccccc2)CCC2(C1)OOC1(O2)C2CC3CC(C2)CC1C3 (centres unmarked) shows % reduction of adult worms growth at day 49 after per os application of 400 mg/kg, TWR (%) of 10% or higher.
Reply text: class 1

Inquiry: Does O=C([C@H]1CC[C@]2(CC1)OOC1(O2)C2CC3CC(C2)CC1C3)N1CCN(c2ccccc2)CC1 (some centres unmarked) [OZ140, hydrochloride] have a reported % reduction of adult worms growth at day 49 after per os application of 400 mg/kg, TWR (%) of at least 10%?
Reply text: class 0
